Values compiled from patent US20200040059A1.

Consider the following binders and their measured MFI readings.
Biological target: T1, CD96 (UniProt P40200)
T1 sequence (looked up): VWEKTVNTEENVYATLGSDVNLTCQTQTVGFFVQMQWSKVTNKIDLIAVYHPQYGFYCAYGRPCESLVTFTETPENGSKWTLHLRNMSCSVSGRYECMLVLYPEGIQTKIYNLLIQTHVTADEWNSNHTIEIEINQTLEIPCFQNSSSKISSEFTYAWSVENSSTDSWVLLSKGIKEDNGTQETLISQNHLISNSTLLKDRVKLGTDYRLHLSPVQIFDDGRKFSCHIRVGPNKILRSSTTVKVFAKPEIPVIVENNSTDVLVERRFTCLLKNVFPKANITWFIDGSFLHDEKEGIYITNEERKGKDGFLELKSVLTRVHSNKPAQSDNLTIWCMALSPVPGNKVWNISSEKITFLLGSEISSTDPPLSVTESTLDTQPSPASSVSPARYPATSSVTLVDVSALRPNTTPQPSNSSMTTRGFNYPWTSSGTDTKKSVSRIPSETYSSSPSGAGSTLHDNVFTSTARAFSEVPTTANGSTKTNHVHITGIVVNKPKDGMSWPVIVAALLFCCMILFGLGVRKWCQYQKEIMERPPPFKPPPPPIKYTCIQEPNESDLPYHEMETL
Experiment: flow cytometry, cells
Measurement kind: MFI

{"columns": ["Binder", "Measurement kind", "Meas value"],
 "data": [
  ["CD155 P18T, F91S IgV-Fc (Fc fusion, not shown: a dimerising Fc or GST; small tags and cut ends) PGTGDVVVQAPTQVTGFLGDSVTLPCYLQVPNMEVTHVSQLTWARHGESGSMAVFHQTQGPSYSESKRLEFVAARLGAELRNASLRMSGLRVEDEGNYTCLFVTFPQGSRSVDIWL", "MFI", 158000],
  ["CD155 P18T, F91S, V115A IgV-Fc (Fc fusion, not shown: a dimerising Fc or GST; small tags and cut ends) PGTGDVVVQAPTQVTGFLGDSVTLPCYLQVPNMEVTHVSQLTWARHGESGSMAVFHQTQGPSYSESKRLEFVAARLGAELRNASLRMSGLRVEDEGNYTCLFVTFPQGSRSADIWL", "MFI", 22700],
  ["CD155 A56V IgV-Fc (Fc fusion, not shown: a dimerising Fc or GST; small tags and cut ends) PGTGDVVVQAPTQVPGFLGDSVTLPCYLQVPNMEVTHVSQLTWARHGESGSMVVFHQTQGPSYSESKRLEFVAARLGAELRNASLRMFGLRVEDEGNYTCLFVTFPQGSRSVDIWL", "MFI", 161000],
  ["CD155 P18T, F91S, F108L IgV-Fc (Fc fusion, not shown: a dimerising Fc or GST; small tags and cut ends) PGTGDVVVQAPTQVTGFLGDSVTLPCYLQVPNMEVTHVSQLTWARHGESGSMAVFHQTQGPSYSESKRLEFVAARLGAELRNASLRMSGLRVEDEGNYTCLFVTLPQGSRSVDIWL", "MFI", 193000]
]}
